These entries and their values trace back to the supplement of paper PMC10201428.

# Tested on: VchCAST RNA-guided transposition machinery (E. coli BL21(DE3) host, lacZ target)
# ASSAY_EXPLANATION: relative integration efficiency (T-LR orientation) vs wild-type transposon end (log2 (normalized fold change)); transposon end mutated: right end (5 bp flank + 75 bp right end); higher = more efficient transposition
METRIC_NAME: relative integration efficiency (log2)
The reply should be a number, written without any unit.

Problem: I have this sequence here, ACATTTGTTGATACAACCATAAAATGATAATTACACCCATAAATTGATAATTATCACACAAATAAATTGATATTGCCTCTGATCATAGTCAGACCAACATTGCTACGACCCGTATTCGCACCGACAC , and I need its recorded relative integration efficiency (log2).
Result: 2.06

Problem: Same again, this time with ACATTTGTTGATACACCCATAAATTGATAATTACAACCATAAGTTGATATTTTTCACAACCATAAAATGATAATTACTCTGATCATAGTCAGACCAACATTGCTACGACCCGTATTCGCACCGACAC
Result: -0.748

Problem: Try this sequence next: ACATTTCTTGATACAACCATAAAATGATAATTACACCCATAAATGGATAATTATCACACCCAATTTAACTATAACGCTCTGATCATAGTCAGACCAACATTGCTACGACCCGTATTCGCACCGACAC
Result: 0.0926
